Just for reference, paper PMC13168289 is where these values come from.

test: cytotoxicity against HepG2 cells; format: cell-based; conditions: human, HepG2 cells; read-out: inhibition IC50 vs HepG2
QUANTITY MEASURED: IC50 at 24 h (µM)

| COMPOUND | QUANTITY MEASURED | NUMERIC VALUE |
| --- | --- | --- |
| O=C1C(O)=C([C@H]2CC[C@H](c3ccc(Cl)cc3)CC2)C(=O)c2ccccc21 | IC50 at 24 h | 61.2 |
| OC(c1cc(C(F)(F)F)nc2c(C(F)(F)F)cccc12)C1CCCCN1 (centres unmarked) | IC50 at 24 h | 4.94 |

* * *

Recorded IC50 by entry
tested on: P. falciparum mutant T111 lines; assay: drug susceptibility of T111-selected cyt b mutant lines; format: cell-based, Plasmodium falciparum; settings: Plasmodium falciparum, DD2, Supplementary Table 4; Dd2-D0119L-131S-259L (pfdhodh mutation)

| MOLECULE | IC50 [nM] |
| --- | --- |
| C[C@H]1[C@@H](O)O[C@@H]2O[C@@]3(C)CC[C@H]4[C@H](C)CC[C@@H]1[C@@]24OO3 [DHA, dihydroartemisinin] | 2.2 |
| CCN(CC)CCCC(C)Nc1ccnc2cc(Cl)ccc12 (stereo not shown) | 210 |
| Clc1ccc2c(N3CCN(CCCN4CCN(c5ccnc6cc(Cl)ccc56)CC4)CC3)ccnc2c1 | 11 |
| CCCCN(CCCC)CC(O)c1cc(Cl)cc2c1-c1ccc(Cl)cc1/C2=C/c1ccc(Cl)cc1 (stereo not shown) | 1.5 |
